biological target: UniProt P08684; assay: Inhibition of CYP3A4 using BFC as substrate at 10 uM; assay type: ADME; settings: probe BFC
Sequence (P08684 whole entry): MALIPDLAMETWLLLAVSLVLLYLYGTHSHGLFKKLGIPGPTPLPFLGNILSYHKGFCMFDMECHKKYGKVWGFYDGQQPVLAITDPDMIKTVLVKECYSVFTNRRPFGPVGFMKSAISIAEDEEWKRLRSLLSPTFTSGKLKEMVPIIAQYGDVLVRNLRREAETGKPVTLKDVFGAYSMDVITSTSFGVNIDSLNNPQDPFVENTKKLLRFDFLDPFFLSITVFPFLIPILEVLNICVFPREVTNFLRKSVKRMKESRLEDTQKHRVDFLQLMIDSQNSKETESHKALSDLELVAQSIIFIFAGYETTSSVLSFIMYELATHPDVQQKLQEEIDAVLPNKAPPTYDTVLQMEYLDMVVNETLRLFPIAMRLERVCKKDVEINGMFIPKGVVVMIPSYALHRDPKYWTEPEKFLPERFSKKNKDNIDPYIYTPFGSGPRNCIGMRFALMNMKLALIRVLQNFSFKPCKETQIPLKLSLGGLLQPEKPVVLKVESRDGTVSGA
# inhibition at 10 µM per record follows
Respond with the bare value in %.

Use the examples below as a reference point.
smiles_repr=C[C@@H](C(=O)Nc1nccs1)c1ccc(OS(=O)(=O)C(F)(F)F)cc1 property_label="inhibition at 10 µM" observed=52
smiles_repr=C[C@@H](C(=O)Nc1nc(C(F)(F)F)cs1)c1ccc(OS(=O)(=O)C(F)(F)F)cc1 property_label="inhibition at 10 µM" observed=52
smiles_repr=C[C@@H](C(=O)Nc1nc(C(F)(F)F)co1)c1ccc(OS(=O)(=O)C(F)(F)F)cc1 property_label="inhibition at 10 µM" observed=82

Exam item: Returns the measured inhibition at 10 µM for the input molecule. Input: Cc1csc(NC(=O)[C@H](C)c2ccc(OS(=O)(=O)C(F)(F)F)cc2)n1
Marked response: 60

Origin of values: ChEMBL document CHEMBL2021812
